All values here come from patent US12636385B2.

measurement-target: Aβ(1-42) amyloid fibrils (Homo sapiens)
Construct: Aβ(1-42) amyloid fibrils
Sequence (P05067 672-713): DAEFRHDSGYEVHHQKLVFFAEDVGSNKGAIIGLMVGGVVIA
test: ^3H-AZD2184 competition binding to Aβ(1-42) fibrils in vitro
particulars: [^3H]-AZD2184, Aβ(1-42) amyloid fibrils; average if run more than once
pIC50: −log10 of the molar value.
reported-metric: pIC50

Reference set (5 entries):
>  <smi>
COc1ccc2nc(-c3ccc(N4CCC(CCOCCOCCOCCF)CC4)nc3)sc2c1

>  <experimental-value>
8.40

$$$$
>  <smi>
COc1ccc2[nH]c(-c3ccc(N4CCC(C(N)=O)CC4)nc3F)cc2c1

>  <experimental-value>
7.14

$$$$
>  <smi>
FCCC1CCN(c2ncc(-c3cc4ccccc4o3)cn2)CC1

>  <experimental-value>
7.60

$$$$
>  <smi>
OC1CCN(c2ncc(-c3cc4ccccc4o3)cn2)CC1

>  <experimental-value>
7.18

$$$$
>  <smi>
OCCC1CCN(c2ncc(-c3nc4ccc(O)cc4s3)cn2)CC1

>  <experimental-value>
6.60

$$$$

I: Oc1ccc2nc(-c3cnc(N4CCC(CCF)CC4)nc3)sc2c1
II: OCC1CCN(c2ncc(-c3nc4ccc(O)cc4s3)cn2)CC1
III: O=C(NCCO)c1ccc2nc(-c3cnc(N4CCC(CCF)CC4)nc3)sc2c1
Arrange by pIC50, high to low. Please respond with the labels ordered as the question requires. III, I, II
(III: 7.55, I: 7.30, II: 6.52)
